Hey, just so you know, these numbers are from paper PMC12787000.

# System: A375 cells
# test_description: Cellular uptake and subcellular distribution by LC-MS/MS
# Assay type: cell-based
# reported_conditions: A375, 25 μM, 24 h, μmol compound per μg cell protein normalized to telmisartan
Consider the following compounds and their measured Compound cell accumulation normalized to telmisartan, Whole Lysate readings.
Please reply with the value in numeric form only.

> print(dat)
                                   compound  assay.value
1  CCCc1nc2c(C)cc(-c3nc4ccccc4n3C)cc2n1Cc1ccc(-c2ccccc2C(=O)O)cc1 [Telmisartan, reference compound]         1.00

QUERY: GET /values?readout=Compound cell accumulation normalized to telmisartan, Whole Lysate&item= CCCc1nc2c(C)cc(-c3nc4ccccc4n3C)cc2n1Cc1ccc(-c2ccccc2C(=O)NC(Cc2ccc(O)cc2)C(=O)O)cc1 (stereo not shown) [compound 3]
RESULT: 4.57

QUERY: GET /values?readout=Compound cell accumulation normalized to telmisartan, Whole Lysate&item= CCCc1nc2c(C)cc(-c3nc4ccccc4n3C)cc2n1Cc1ccc(-c2ccccc2C(=O)NC(Cc2cn(C)c3ccccc23)C(=O)O)cc1 (stereo not shown) [compound 1]
RESULT: 12.08

QUERY: GET /values?readout=Compound cell accumulation normalized to telmisartan, Whole Lysate&item= CCCc1nc2c(C)cc(-c3nc4ccccc4n3C)cc2n1Cc1ccc(-c2ccccc2C(=O)NC(Cc2ccccc2)C(=O)O)cc1 (stereo not shown) [compound 8]
RESULT: 4.41
